Test Target: recombinant wild-type SARS-CoV-2 S trimer (ELISA antigen) (SARS-CoV-2 wild-type, UniProt P0DTC2)
Property Label: binding result

[[record]]
binder = "P5S-2G9 (antibody, V domains shown) VH: QVTLRESGPALVKPTQTLTLTCTFSGFSLRTTGMCVSWIRQPPGKALEWLALIDWDGDKYYATSLETRLTISKDTSENQVVLTMTNMDPVDTATYYCVRTLRLRWLDFWGQGTLVTVSS VL: DIQMTQSPSSLSASVGDRVTITCRASQSIGTSLNWYQQKPVKAPNLLIYGASSLQSGVPSRFSGSGSGTDFTLTISSLQPEDFATYYCQQGYTTPLTFGGGTKVEIK"
result = "binds"

[[record]]
binder = "P2-1G9 (antibody, V domains shown) VH: EVQLVESGGGLVQPGGSLRLSCAASGFTFSTYWMSWVRQAPGKGLEWVANIKQDGSDKYYVDSVKGRFTISRDNAKNSLYLQMNSLRVEDTAVYYCARDLGILWFGELPNFDPWGQGTLVTVSS VL: DIQMTQSPSSLSASVGDRVTITCRASQGISNSLAWYQQKPGKAPKLLLYAASTLESGVPSRFSGSGSGTDYTLTISSLQPEDFATYYCQQYYSPPPRTFGQGTKVEIK"
result = "binds"

[[record]]
binder = "P10S-2F9 (antibody, V domains shown) VH: QVTLRESGPALVKPTQTLPLTCTFSGFSLSTSGMCVSWIRQPPGKALEWLALIDWDDNKYYSTSLKARLTISKDTSKNQVVLTMTNMDPVDTATYYCARIPALLRYLDKFYYFGMDVWGQGTTVTVSS VL: QSVLTQPPSVSAAPGQKVTISCSGSSPNIGNNYVSWYQQLPGTAPKLLIYDNNKRPSGIPDRFSGSKSGTSATLGITGLQTGDEAGYYCGTWDSSLSAVVFGGGTKLTVL"
result = "binds"


Source: paper PMC10063446
